Hello, the source for this data is patent US20160228506A1, in case you need it.

Could you please report measured % Intact Protein at 10 min for the items listed next?
Assay: SGF digest of 168 nutritive polypeptide library, intact protein by LC-MS/MS
Format: in vitro ADME
Conditions: 168 nutritive polypeptide library SGF digest, LC-MS/MS spectral counts
One number for each entry, in %.

>>> meas_value("SEQID-00484: protein of the 168 nutritive polypeptide library (protein, listed as Saccharomyces cerevisiae, source: /note=\"strain ATCC 204508 / S288c\", protein of the 168 nutritive polypeptide library) MSEKFPPLEDQNIDFTPNDKKDDDTDFLKREAEILGDEFKTEQDDILETEASPAKDDDEIRDFEEQFPDINSANGAVSSDQNGSATVSSGNDNGEADDDFSTFEGANQSTESVKEDRSEVVDQWKQRRAVEIHEKDLKDEELKKELQDEAIKHIDDFYDSYNKKKEQQLEDAAKEAEAFLKKRDEFFGQDNTTWDRALQLINQDDADIIGGRDRSKLKEILLRLKGNAKAPGA")
0

We next turn to a different molecule, shown below.
Request: Param item = SEQID-00495: protein of the 168 nutritive polypeptide library (protein, listed as Vitis vinifera) MEKNVESDPNPPLASGPEFPPATTPADVKNDVALEKSVVPPPEVKADESKALAVVEKTPDSAAKKTSGGSFERDVALANLEKEKQLSFIRAWEESEKSKVDNKAQKKLSDVCAWENSKKAAVEANLKKIEEELEKKKAEYAEKMKNKVALIHKQAEEKKAMIEARRGEEFLKAEEMAAKFRATGQTPKKVLGCFGG ; retrieve measured % Intact Protein at 10 min.
Response: 0
